B1: tRNA (parent)
chain: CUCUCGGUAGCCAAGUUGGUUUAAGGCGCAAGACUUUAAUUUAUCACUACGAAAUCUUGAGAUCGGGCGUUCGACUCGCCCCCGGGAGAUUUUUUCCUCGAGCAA

Variants of: B1
Test: nonsense suppression (GFP-seq) (ratio to wild type); higher = more function; SUP4oc tRNA, yeast GFP reporter sort-seq
Fewer inactive variants are shown than the library holds.
Items are presented alongside their recorded nonsense suppression.
Keep the answer to the number alone.

Consider the worked cases shown below.
variant.descriptor: U17A G61C
nonsense suppression: 0.665

variant.descriptor: C72G G78A
nonsense suppression: 0.0282

variant.descriptor: G15A C81U
nonsense suppression: 0.0386

variant.descriptor: U17G
nonsense suppression: 0.999

variant.descriptor: G28A C29U
nonsense suppression: 1.15

variant.descriptor: U4G U16C
nonsense suppression: 0.882

Please find the next variant below.
Exam item: Consider the variant shown here: U21C C81U What is its recorded nonsense suppression?
Marked response: 1.14

Reference source: the RNAGym collection of RNA variant scans (doi:10.1101/gad.245936.114)
